Below, each of the compounds is paired with its reported inhibition at 100 µM value.
# target-or-system: H1 receptor (Cavia porcellus, UniProt P31389)
# Construct: guinea pig cerebromembranous protein; from tissue; host or cells: guinea pig cerebral (brain) membranes
# Sequence (P31389 whole entry): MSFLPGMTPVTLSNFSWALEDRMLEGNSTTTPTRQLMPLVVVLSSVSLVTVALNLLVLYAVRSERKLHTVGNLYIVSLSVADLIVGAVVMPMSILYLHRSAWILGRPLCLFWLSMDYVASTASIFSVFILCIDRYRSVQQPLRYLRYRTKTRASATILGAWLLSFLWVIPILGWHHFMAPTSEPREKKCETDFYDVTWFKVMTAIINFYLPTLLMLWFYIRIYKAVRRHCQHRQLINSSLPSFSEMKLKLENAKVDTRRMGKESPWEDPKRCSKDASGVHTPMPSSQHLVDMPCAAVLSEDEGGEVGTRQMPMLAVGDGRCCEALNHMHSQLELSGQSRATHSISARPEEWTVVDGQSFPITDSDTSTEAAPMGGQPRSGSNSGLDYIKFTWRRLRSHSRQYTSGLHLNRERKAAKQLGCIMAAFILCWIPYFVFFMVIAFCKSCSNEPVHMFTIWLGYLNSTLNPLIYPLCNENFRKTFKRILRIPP
# assay-text: H1 receptor binding inhibition test ([^3 H]mepyramin, guinea pig cerebromembranous protein)
# setup-conditions: a: 100 μM; read-out: H1 receptor (%), inhibition rate
Field: value (include unit after the number)

The compound listed as CC1(C)C(=O)Nc2ccc(OCc3cccc(OCc4ccc5ccccc5n4)c3)cc21 [Example 14] shows inhibition at 100 µM equal to 29%

The compound listed as Cn1c(COc2cccc(COc3ccc4c(c3)S(=O)(=O)CC(=O)N4)c2)nc2ccccc21 [Example 79] shows inhibition at 100 µM equal to 43%

The compound listed as Cc1ccc(OCc2ccc(OCc3ccc4ccccc4n3)cc2)c2c1NC(=O)CC2 [Example 21] shows inhibition at 100 µM equal to 28%

The compound listed as O=C1CS(=O)(=O)c2cc(NC(=O)c3cccc(OCc4ccc5ccccc5n4)c3)ccc2N1 [Example 80] shows inhibition at 100 µM equal to 36%

The compound listed as CCOCCn1c(COc2ccc(COc3ccc(C)c4c3C(C)(C)C(=O)N4)cc2)nc2ccccc21 [Example 45] shows inhibition at 100 µM equal to 40%

The compound listed as Cc1ccc(OC(=O)c2cccc(OCc3ccc4ccccc4n3)c2)c2c1NC(=O)CC2 [Example 54] shows inhibition at 100 µM equal to 41%

The compound listed as CC1(C)C(=O)Nc2cc(OC(=O)c3cccc(OCc4ccc5ccccc5n4)c3)ccc21 [Example 60] shows inhibition at 100 µM equal to 38%

The compound listed as O=C1CSc2cc(OCc3cccc(OCc4ncc5ccccc5n4)c3)ccc2N1 [Example 33] shows inhibition at 100 µM equal to 46%
